Target: human SGLT1 (Homo sapiens)
Construct: expressed in transfected cells
Sequence (P13866 1-664): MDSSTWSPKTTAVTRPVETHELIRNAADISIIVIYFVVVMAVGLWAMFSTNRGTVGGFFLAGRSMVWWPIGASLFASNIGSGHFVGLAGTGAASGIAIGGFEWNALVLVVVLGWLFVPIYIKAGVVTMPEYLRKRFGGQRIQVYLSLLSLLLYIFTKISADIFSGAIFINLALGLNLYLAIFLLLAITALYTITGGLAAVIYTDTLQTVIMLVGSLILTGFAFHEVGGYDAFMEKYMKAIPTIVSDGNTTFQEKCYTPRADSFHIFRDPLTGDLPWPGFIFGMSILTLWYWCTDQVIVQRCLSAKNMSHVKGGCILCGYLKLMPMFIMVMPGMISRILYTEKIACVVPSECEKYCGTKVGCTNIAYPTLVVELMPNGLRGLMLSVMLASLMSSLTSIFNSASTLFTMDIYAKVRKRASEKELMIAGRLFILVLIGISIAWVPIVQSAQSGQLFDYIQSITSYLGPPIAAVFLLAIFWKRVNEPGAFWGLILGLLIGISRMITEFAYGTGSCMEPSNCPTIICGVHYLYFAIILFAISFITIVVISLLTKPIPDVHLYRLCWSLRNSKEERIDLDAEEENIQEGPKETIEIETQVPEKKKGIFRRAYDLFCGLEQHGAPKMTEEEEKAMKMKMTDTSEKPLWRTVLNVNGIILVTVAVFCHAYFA
Assay: SGLT1 in vitro assay: Na-dependent 14C-AMG uptake in CHO-K1 cells stably expressing human SGLT1
Type: cell-based
Settings: 0.3 μM; CHO-K1 cells expressing human SGLT1; read-out: SGLT1 % Inh @ 0.3 μM
The threshold is inclusive: inhibition at 0.3 µM of exactly 50% counts as Condition met; values below receive Condition not met.

Below are worked cases with known answers.
# COMPOUND, ASSIGNED_CLASS
rows = [
    ("Cc1cc(O)c([C@@H]2O[C@H](CO)[C@@](C)(F)[C@H](O)[C@H]2O)cc1Cc1ccc(OCF)cc1 (stereo in doubt)", "Condition met"),
    ("C[C@]1(F)[C@H](O)[C@@H](O)[C@H](c2cc(Cc3cc4ccccc4s3)c(Cl)cc2O)O[C@@H]1CO", "Condition not met"),
    ("CCc1cc(O)c([C@@H]2O[C@H](CO)[C@@](C)(F)[C@H](O)[C@H]2O)cc1Cc1ccc(OC)cc1", "Condition met"),
    ("COc1cc(O)c([C@@H]2O[C@H](CO)[C@@](C)(F)[C@H](O)[C@H]2O)cc1Cc1ccc2c(c1)OCCO2", "Condition met"),
    ("COc1cc(OC)c([C@@H]2O[C@H](CO)[C@@](C)(F)[C@H](O)[C@H]2O)cc1Cc1ccc2c(c1)OCCO2", "Condition not met"),
    ("C[C@]1(F)[C@H](O)[C@@H](O)[C@H](c2cc(Cc3ccc4c(c3)OCCO4)c(Cl)cc2O)O[C@@H]1CO", "Condition not met"),
]

## Task // inclusive: inhibition at 0.3 µM at least 50%? input: COc1cc(O)c([C@@H]2O[C@H](CO)[C@@](C)(F)[C@H](O)[C@H]2O)cc1Cc1ccc2c(c1)CCCO2
## Result Condition not met

## Task // inclusive: inhibition at 0.3 µM at least 50%? input: Cc1cc(O)c([C@@H]2O[C@H](CO)[C@@](C)(F)[C@H](O)[C@H]2O)cc1Cc1cc2ccccc2s1
## Result Condition met
